The reported numbers originate from ChEMBL document CHEMBL1146243.

Target: Glutamate NMDA receptor; GRIN1/GRIN2B (Homo sapiens, UniProt Q05586+Q13224)
Sequence (Q13224 whole entry, other chains not shown): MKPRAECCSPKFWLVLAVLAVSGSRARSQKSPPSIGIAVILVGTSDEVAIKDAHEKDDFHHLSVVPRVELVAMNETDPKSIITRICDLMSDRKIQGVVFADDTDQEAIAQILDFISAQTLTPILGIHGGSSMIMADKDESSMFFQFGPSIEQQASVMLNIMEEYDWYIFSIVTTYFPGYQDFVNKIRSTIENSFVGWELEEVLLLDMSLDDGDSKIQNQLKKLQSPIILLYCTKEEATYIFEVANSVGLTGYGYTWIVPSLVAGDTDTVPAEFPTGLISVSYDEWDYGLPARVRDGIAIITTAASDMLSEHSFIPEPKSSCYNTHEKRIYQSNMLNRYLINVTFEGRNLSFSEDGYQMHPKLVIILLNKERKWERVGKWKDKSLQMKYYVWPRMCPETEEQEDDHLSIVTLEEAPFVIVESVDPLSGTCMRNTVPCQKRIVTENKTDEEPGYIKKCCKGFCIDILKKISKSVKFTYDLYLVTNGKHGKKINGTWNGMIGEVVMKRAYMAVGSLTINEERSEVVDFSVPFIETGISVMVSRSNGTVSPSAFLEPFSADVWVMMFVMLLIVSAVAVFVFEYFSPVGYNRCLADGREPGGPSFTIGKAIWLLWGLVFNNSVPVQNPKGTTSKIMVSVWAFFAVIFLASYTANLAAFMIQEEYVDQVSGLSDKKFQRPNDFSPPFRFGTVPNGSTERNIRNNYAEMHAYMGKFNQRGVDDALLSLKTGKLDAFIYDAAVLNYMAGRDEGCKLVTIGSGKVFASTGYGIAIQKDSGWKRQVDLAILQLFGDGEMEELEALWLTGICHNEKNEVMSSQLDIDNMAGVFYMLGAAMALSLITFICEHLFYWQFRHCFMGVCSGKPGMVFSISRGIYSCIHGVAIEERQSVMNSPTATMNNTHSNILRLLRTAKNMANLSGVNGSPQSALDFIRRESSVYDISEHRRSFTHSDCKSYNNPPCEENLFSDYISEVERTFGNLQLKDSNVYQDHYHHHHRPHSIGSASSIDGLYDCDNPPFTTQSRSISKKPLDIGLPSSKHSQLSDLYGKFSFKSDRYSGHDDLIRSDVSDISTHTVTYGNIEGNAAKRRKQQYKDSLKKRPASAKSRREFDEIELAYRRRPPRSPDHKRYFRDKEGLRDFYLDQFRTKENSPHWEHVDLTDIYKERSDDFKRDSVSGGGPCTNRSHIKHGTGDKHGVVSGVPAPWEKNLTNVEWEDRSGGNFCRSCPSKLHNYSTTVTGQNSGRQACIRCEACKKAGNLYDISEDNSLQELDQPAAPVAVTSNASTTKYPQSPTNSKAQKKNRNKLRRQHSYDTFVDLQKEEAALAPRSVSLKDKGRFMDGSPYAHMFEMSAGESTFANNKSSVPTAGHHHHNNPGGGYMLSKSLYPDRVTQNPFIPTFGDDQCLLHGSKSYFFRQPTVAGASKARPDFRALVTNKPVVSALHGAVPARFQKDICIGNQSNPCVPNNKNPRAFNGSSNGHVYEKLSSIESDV
Test: Antagonist activity at recombinant NR1/NR2B receptor expressed in Xenopus laevis oocytes
pIC50 overview
Conceptually, pIC50 converts a concentration in mol/L into minus its log10.

[[record]]
structuresmiles = "NCCCNCCCCNCCCNC(=O)n1c2ccccc2c2ccccc21"
reportedvalue = 7.08

[[record]]
structuresmiles = "NCCCCNCCCCNCCCCNC(=O)n1c2ccccc2c2ccccc21"
reportedvalue = 6.78

[[record]]
structuresmiles = "NCCCCNCCCNCCCCNC(=O)n1c2ccccc2c2ccccc21"
reportedvalue = 6.72

[[record]]
structuresmiles = "NCCCNCCCCNCCCNC(=O)c1ccc2c(c1)C(=O)c1ccccc1C2=O"
reportedvalue = 6.31

[[record]]
structuresmiles = "NCCCCNCCCCNCCCCNC(=O)N1c2ccccc2Sc2ccccc21"
reportedvalue = 6.97


Input: Supply measured pIC50 of NCCCCNCCCNCCCCNC(=O)N1c2ccccc2CCc2ccccc21 in your reply.
Output: 6.57

Input: Provide only the value of recorded pIC50 for NCCCNCCCCNCCCNC(=O)N1c2ccccc2C=Cc2ccccc21
Output: 6.70

Input: Give the reported pIC50 for this compound. NCCCCNCCCCNCCCCNC(=O)N1c2ccccc2C=Cc2ccccc21
Output: 6.53

Input: State, in one line, measured pIC50 of NCCCCNCCCNCCCCNC(=O)N1c2ccccc2Sc2ccccc21
Output: 6.97
